pIC50: −log10 of the molar value.
The following molecules were reported with pIC50 values on Aurora kinase A (Homo sapiens, UniProt O14965) in different studies.

So, Cc1cc(Nc2nn(-c3ccc(N4CCOCC4)cc3)c(=O)c3ccccc23)n[nH]1 ? Its pIC50 was 7.00 to 9.00

So, O=C(NC1CC1)c1ccccc1Nc1nc(Nc2ccc(N3CCOCC3)cc2)ncc1Cl ? Its pIC50 was 8.37

So, Clc1ccc(COc2cccc(Nc3nccc(-c4nccs4)n3)c2)cc1Cl ? Its pIC50 was < 5.70

So, COc1ccc2c(Nc3cc(C)[nH]n3)nn(C(C)C)c(=O)c2c1 ? Its pIC50 was 7.00 to 9.00

So, O=[N+]([O-])c1cccc(Nc2nccc(-c3nccs3)n2)c1 ? Its pIC50 was > 6.30

So, O=C(NOCc1ccccc1)c1cc(-c2[nH]ncc2-c2cccc(Cl)c2)c[nH]1 ? Its pIC50 was > 5.30

So, O=c1[nH]c2ncc(-c3cccs3)nc2n1Cc1ccccc1 ? Its pIC50 was < 6.00

So, CCOC(=O)CCc1c(/C=C2\C(=O)Nc3ccc(NS(=O)(=O)c4cc(F)cc(F)c4)cc32)[nH]c2c1C(=O)CCC2 ? Its pIC50 was 7.11

Hey, quick one: what's pIC50 for each of these?
1. COc1cc2c(Oc3ccc(NC(=O)Nc4ccccc4)cc3)ccnc2cc1OCCC[C@H](N)C(=O)O
2. Cc1c(-c2ccnc(Nc3cccc(O)c3)n2)c(C)n2c1C(=O)NCC2
3. O=c1[nH]ncn1-c1cccc(-c2cnc3[nH]cc(C4CC4)c3c2Cl)c1
4. O=C1NCc2cccc(Nc3nc(Nc4ccc(N5[C@@H]6CC[C@H]5CNC6)cc4OC(F)F)ncc3C(F)(F)F)c21

> 5.70
> 6.00
7.27
6.00 to 7.00

---

The following molecules were reported with IC50 values on Aurora kinase A (Homo sapiens) in different studies.
In plain terms, low IC50, meaning strictly below 70 nM, gives Y, and everything else gives N.

In plain terms, does C=CC(=O)Nc1cccc(NS(=O)(=O)c2cccc(Nc3ncc4c(n3)N(C)c3ccc(C)cc3C(=O)N4C)c2)c1 come in under 70 nM for IC50? N

In plain terms, does O=C(c1ccoc1)N1CCN(Cc2cccc(Nc3ncc(Cl)s3)n2)CC1 come in under 70 nM for IC50? Y

In plain terms, does C[C@@H](c1ccccc1)n1c(=O)[nH]c2ncc(-c3ccc4[nH]ccc4c3)nc21 come in under 70 nM for IC50? N

---
In plain terms, does OCc1cccc(-c2ccnc(Nc3cccc(F)c3)n2)c1 come in under 70 nM for IC50? N

In plain terms, does CN(c1cccc(-c2ccnc(Nc3ccc(O)cc3)n2)c1)S(C)(=O)=O come in under 70 nM for IC50? N

In plain terms, does O=C(c1cccc(Cl)c1F)N1CCN(Cc2cc(CO)cc(Nc3nccs3)n2)CC1 come in under 70 nM for IC50? Y

In plain terms, does Cn1cc(-c2n[nH]c3cc(-c4ccc(NC(=O)Nc5cccc(OC(F)(F)F)c5)cc4)ccc23)cn1 come in under 70 nM for IC50? N

In plain terms, does Cc1cc(Nc2cc(C)[nH]n2)nc(N2CC[C@H](NC(=O)O[C@@H](C)C(F)(F)F)C2)n1 come in under 70 nM for IC50? Y
